# EXPERIMENTAL CONTEXT: in n-pentanol, 298.15 K
ASSAY READOUT: solubility (mole fraction)
Give your answer as a number; write no unit.

Which solubility (mole fraction) value is on record for "O=C(O)c1ccccc1O" ?
0.155

* * *

# EXPERIMENTAL CONTEXT: in n-butanol, 278.15 K
ASSAY READOUT: solubility (mole fraction)
Format: numeric value only, no unit, no commentary.

Using the record for "O=C(O)c1ccccc1O" , report its solubility (mole fraction).
0.106

* * *

# EXPERIMENTAL CONTEXT: in ethanol, 313.15 K
ASSAY READOUT: solubility (mole fraction)
The answer should be a number; do not append a unit.

# solubility (mole fraction) lookup, item "O=C(O)c1ccccc1O"
0.182
